Test: Primary qHTS for inhibitors of nuclear receptor binding SET domain protein 2 (NSD2) in an RCH-ACV wild type WT cells (2C) (AID 1645877); also: nearly all actives have a fitted effect of over 70% in size
Details: RCH-ACV (leukaemia line) NSD2 WT (2C) viability, CellTiter-Glo, 72 h; series mostly up to 44.9 µM
Inconclusive results are not listed. Calls of active or inactive are those of the source. Calls follow the shape of the dose curve; as a rule, active = well fitted inhibition curve with a large enough effect; inconclusive = small, poorly fitted or top-dose-only effect; inactive = no such curve, though single readings can be large or run the other way.
Your reply should match one of these outcome classes. yes (1) = active, no (0) = inactive

I would be grateful if you could indicate the recorded call for "CCCCOc1ccc(C(=O)Nc2ccc(F)cc2F)cc1" .
no (0)

Then what about the compound "N#CNC(=NCCCCCCOc1ccc(Cl)cc1)Nc1ccncc1" ?
yes (1)

Then what about the compound CC(=O)SCC(Cc1ccccc1)C(=O)NCC(=O)OCc1ccccc1 (stereo not drawn) ?
no (0)

Then what about the compound "CCN(C(=O)c1c(O)c2c(Cl)cccc2n(C)c1=O)c1ccccc1" ?
no (0)

Then what about the compound "O=C(O)CCCCCC(=O)NN=C1CCCC1" ?
no (0)

Then what about the compound "CC(Oc1ccc(O)cc1)(P(=O)(O)O)P(=O)(O)O" ?
no (0)

Then what about the compound "O=C(NC1CC1)c1cccc(-c2ccc3c(NC(=O)C4CC4)n[nH]c3c2)c1" ?
yes (1)

Then what about the compound "CC[C@@]1([C@@H]2O[C@@H]([C@H]3O[C@@](O)(CO)[C@H](C)C[C@H]3C)C[C@H]2C)CC[C@H]([C@]2(C)CC[C@]3(C[C@H](O)[C@@H](C)[C@@H]([C@@H](C)[C@@H](OC)[C@H](C)C(=O)O)O3)O2)O1" ?
yes (1)

Then what about the compound "CN(C)c1ccc(C(=O)NCCCCCCC(=O)NO)cc1" ?
yes (1)

Then what about the compound "Cc1cnc(Nc2ccc(N3CCN(C)CC3)cc2)nc1Nc1cccc(S(=O)(=O)NC(C)(C)C)c1" ?
yes (1)

Then what about the compound CCCCCCCN(CC)CCCC(O)c1ccc(NS(C)(=O)=O)cc1 (stereo not drawn) ?
no (0)

Then what about the compound "OC[C@@H](O)[C@@H](O)[C@H](O)[C@@H](O)CO" ?
no (0)

Then what about the compound "Cc1cc(O)c2c(c1)C(=O)c1cccc(O)c1C2=O" ?
no (0)

Then what about the compound "CN1C(C(=O)Nc2ccccn2)=C(O)c2sc(Cl)cc2S1(=O)=O" ?
no (0)

Then what about the compound "C[C@H](O)[C@@H]1C(=O)N2C(C(=O)O)=C(S[C@@H]3CN[C@H](CNS(N)(=O)=O)C3)[C@@H](C)[C@@H]12" ?
no (0)

Then what about the compound "C[C@H](NC(=O)[C@@H](O)c1cc(F)cc(F)c1)C(=O)N[C@@H]1C(=O)N(C)c2ccccc2-c2ccccc21" ?
no (0)

Then what about the compound CC(O)(C#Cc1ccc2c(c1)N(c1nc(N)ncc1Cl)CC2)c1nccs1 (stereo not drawn) ?
yes (1)

Then what about the compound "O=C(Nc1cc2cc[nH]c2cn1)c1ccccc1" ?
yes (1)

Then what about the compound "O=C(Nc1cccc(Nc2ncc(Br)c(NCCc3cnc[nH]3)n2)c1)N1CCCC1" ?
yes (1)

Then what about the compound "O=C(CCCCCCC(=O)Nc1cccnc1)NO" ?
yes (1)

Then what about the compound "C=C(C)[C@@H]1CC[C@]2(C(=O)O)CC[C@]3(C)[C@H](CC[C@@H]4[C@@]5(C)CC[C@H](O)C(C)(C)[C@@H]5CC[C@]43C)[C@@H]12" ?
no (0)

Then what about the compound "O=C1c2cccc(O)c2C(=O)c2c(O)cc(CO)cc21" ?
no (0)

Then what about the compound "Oc1ccc(-c2ccc(-c3cc(Nc4cccc(CNC5CC5)c4)n[nH]3)cc2)c(O)c1" ?
yes (1)

Then what about the compound "CC(C)(C)c1nc2c3cc[nH]c(=O)c3c3cc(F)ccc3c2[nH]1" ?
yes (1)

Then what about the compound "O=[N+]([O-])c1cn2c(n1)OC[C@@H](OCc1ccc(OC(F)(F)F)cc1)C2" ?
no (0)

Then what about the compound "Cc1cncc2cccc(S(=O)(=O)N3CCCN(C(=O)CN)C[C@@H]3C)c12" ?
yes (1)

Then what about the compound "CCNC(=O)c1cc2c(-c3cc(OCCN4CCCC4)c(Cl)cc3Cl)nc(N)nc2s1" ?
yes (1)

Then what about the compound "N#Cc1c(C2CCNCC2)cc(-c2c(O)cccc2OCC2CC2)nc1N" ?
yes (1)

Then what about the compound "COc1cc([C@@H]2c3cc4c(cc3[C@H](O)[C@H]3COC(=O)[C@@H]23)OCO4)cc(OC)c1OC" ?
yes (1)

Then what about the compound "COc1cc(C(C)C)c(Oc2cnc(NC(CO)CO)nc2N)cc1I" ?
no (0)

Then what about the compound "CN1CCCN(C(=O)c2cccc(-c3ccc(C=C4C(=O)Nc5ccc(Cl)cc54)o3)c2)CC1" ?
yes (1)

Then what about the compound CC(Cc1ccc(O)c(O)c1)(NN)C(=O)O (stereo not drawn) ?
yes (1)

Then what about the compound "CCCc1nc(C(C)(C)O)c(C(=O)O)n1Cc1ccc(-c2ccccc2-c2nn[nH]n2)cc1" ?
no (0)

Then what about the compound "O=C(Nc1nnc(-c2ccco2)o1)c1cc(-c2ccccc2)nc2ccccc12" ?
yes (1)

Then what about the compound C[C@](Cc1c[nH]c2ccccc12)(NC(=O)OC1C2CC3CC(C2)CC1C3)C(=O)NC[C@H](NC(=O)CCC(=O)O)c1ccccc1 (stereo partly drawn) ?
no (0)

Then what about the compound OC[C@H]1OC(O)C[C@@H](O)[C@H]1O (stereo partly drawn) ?
no (0)

Then what about the compound "COc1ccc(C=Cc2cc(OC)c(OC)c(OC)c2)cc1NC(=O)[C@H](N)CO" ?
yes (1)

Then what about the compound "Cn1cnc(=N)c2[nH]cnc21" ?
no (0)
